Here is a set of compounds with reported IC50 for Protein arginine N-methyltransferase 5 (Homo sapiens), compiled from the literature.
MEASURED PARAMETER: IC50

Cn1ccc(-c2cn(-c3cncc(COc4ccc5cnc(N6CCC6)nc5c4)c3)c3ncnc(N)c23)n1 :: > 1000 nM
Nc1nc2cc(OCC3=C[C@@H](n4ccc5c(N)ncnc54)[C@H](O)[C@@H]3O)cc(F)c2cc1Cl :: 0.3 to 0.95 nM
CC[C@@H]1Cc2cc3ccc(CC[C@H]4C[C@@H](n5ccc6c(N)ncnc65)[C@H](O)[C@@H]4O)cc3nc2N1 :: < 1 nM
Nc1ccc2ccc([C@H]3C[C@@]4(CO3)C[C@@H](n3ccc5cncnc53)[C@H](O)[C@@H]4O)cc2n1 :: ≤ 100 nM
Nc1ncnc2c1ccn2[C@@H]1C[C@H](CCc2ccc3cc4c(=O)n(-c5ccccc5)[nH]c4nc3c2)[C@@H](O)[C@H]1O :: > 100 nM
CC(C)[C@@H]1Cc2cc3ccc(CC[C@H]4C[C@@H](n5ccc6c(N)ncnc65)[C@H](O)[C@@H]4O)cc3nc2N1 :: < 1 nM
Nc1ncnc2c1ccn2[C@@H]1C[C@H](CCc2ccc3cc4c(nc3c2)N[C@H](C2CC2)C4)[C@@H](O)[C@H]1O :: < 1 nM
Nc1nc2cc(CCC3=C[C@@H](n4ccc5cn6ccnc6nc54)[C@H](O)[C@@H]3O)ccc2cc1Cl :: > 0.95 nM
C[C@@]1(O)C(CCc2cc(F)c3cc(Cl)c(N)nc3c2)=C[C@@H](n2ccc3c(N)ncnc32)[C@@H]1O :: 0.3 to 0.95 nM
COc1ccc(Cn2cnc3ccc(-c4ccc(CN(C)CCN)cc4)cc32)cc1 :: 5690 nM
CCc1cc(=O)c2ccc(OCc3cncc(-n4cc(C5CCCC5)c5c(N)ncnc54)c3)cc2[nH]1 :: > 1000 nM
CS(=O)(=O)c1ccc(Cn2cnc3ccc(-c4ccc(CNCCN)cc4)cc32)cc1 :: 105 nM
Nc1ncnc2c1ccn2[C@@H]1C[C@]2(C[C@H](Cc3ccc4ncsc4c3)C2)[C@@H](O)[C@H]1O :: 490 nM
COc1ccccc1-c1cn(-c2cncc(COc3ccc4ccc(N5CCC5)nc4c3)c2)c2ncncc12 :: > 1000 nM
Nc1ncnc2c1ccn2[C@@H]1C[C@]2(C[C@@H](Oc3ccc4cc(Cl)cnc4c3)C2)[C@@H](O)[C@H]1O :: 646 nM
CNCCN(C)Cc1cccc(-c2cc(C(=O)N(C)Cc3ccccc3)c3cnn(C(C)C)c3n2)c1 :: 849 nM
Cc1nc(N)nc2c1cnn2[C@@H]1C=C(CCc2cc(F)c3cc(Cl)c(N)nc3c2)[C@@H](O)[C@H]1O :: 0.4 to 0.75 nM
Nc1ncnc2c1ccn2[C@@H]1C[C@]2(C[C@@H](COc3cccc(Cl)n3)C2)[C@@H](O)[C@H]1O :: 3470 nM
Nc1ncnc2c1ccn2[C@@H]1O[C@H](CCc2ccc3cc4c(nc3c2)NCCC4)[C@@H](O)[C@H]1O :: < 1 nM
Nc1ncnc2c1ccn2[C@@H]1C[C@H](CCc2ccc3cc4cc[nH]c4nc3c2)[C@@H](O)[C@H]1O :: 1 to 100 nM
Nc1ncnc2c1ccn2[C@@H]1C[C@]2(C[C@@H](Cc3cccnc3)C2)[C@@H](O)[C@H]1O :: 170 nM
Nc1cnc2ccc(CC[C@@]34C[C@@H]3[C@@H](n3ccc5c(N)ncnc53)[C@H](O)[C@@H]4O)cc2n1 :: 0.25 to 0.95 nM
Nc1ncnc2c1ccn2[C@@H]1C[C@H](CCc2ccc3cc4c(nc3c2)NC(=O)CS4)[C@@H](O)[C@H]1O :: < 1 nM
Nc1nc2cc(CCC3=C[C@@H](n4ccc5c(N)ncnc54)[C@H](O)[C@@H]3O)cnc2cc1Cl :: 0.25 to 0.95 nM
Nc1ncnc2c1ccn2[C@@H]1C[C@]2(C[C@@H](Cc3ccccn3)C2)[C@@H](O)[C@H]1O :: 5620 nM
CNCCNCc1ccc(-c2cncc(C(=O)NCc3c(C)cc(C)[nH]c3=O)c2)cc1 :: 36500 nM
Nc1ccn([C@@H]2C=C(COc3cc(F)c4cc(Cl)c(N)nc4c3)[C@@H](O)[C@H]2O)c(=O)n1 :: 0.25 to 0.95 nM
CN(CCO)c1ccc2ccc(OCc3cncc(-n4cc(-c5ccn(C)n5)c5c(N)ncnc54)c3)cc2n1 :: > 1000 nM
